# Test system: cultured PBMCs of the allergic donors
# Test summary: ELISPOT of IL-5 or IFNg production by cultured PBMCs of TG allergic donors in response to peptide
# Assay type: cell-based, human
# Condition notes: Table 6; PP peptides recognized by T cells of grass allergic donors (n=20)
Measure name: No of PP & Th+ peptides per NTGA

Molecule	Recorded measurement
NTGA 87: Phl p wild type sequence, Table 2 (protein, Phleum Pratense) MAVKVYVVYYSMYGHVGKLAEEIKKGASSVEGVEVKVWQVPEILSEEVLGKMGAPPKTDVPIISPQELAEADGILFGFPTRFGMMASQMKAFFDATGGLWREQSLAGKPAGVFFSTGTQGGGQETTPLTAVTQLTHHGMVFVPVGYTFGAKMFDMEKVQGGSPYGAGTFAGDGSRWPSEMELEHAFHQGKYFAGIAKKLKGS	0
NTGA 32: Phl p wild type sequence, Table 2 (protein, Phleum Pratense) MAPIKIGINGFGRIGRLVARVALQCPDVELVAVNDPFITTDYMTYMFKYDTVHGQWKHHDVKVKDAKTLLFGEKEVAVFGCRNPEEIPWGAAGADYVVESTGVFTDKDKAAAHIKGGAKKVIISAPSKDAPMFVCGVNEKEYTSDITIVSNASCTTNCLAPLAKVINDRFGIVEGLMTTVHAMTATQKTVDGPSSKDWRGGRAASFNIIPSSTGAAKAVGKVLPVLNGKLTGMAFRVPTVDVSVVDLTVRLEKAATYEQIKAAIKEESEGNLKGILGYVDEDLVSTDFQGDSRSSIFDAKAGIALNDNFVKLVSWYDNEWGYSTRVVDLIRHIHATK	4

Noted for NTGA 86: Phl p wild type sequence, Table 2 (protein, Phleum Pratense) MSTAEATREENVYMAKLAEQAERYEEMVEFMEKVAKTADVGELTVEERNLLSVAYKNVIGARRASWRIISSIEQKEESRGNEAYVASIKEYRTRIETELSKICDGILKLLDSHLVPSATAAESKVFYLKMKGDYHRYLAEFKAGAERKEAAENTLVAYKSAQDIALADLPTTHPIRLGLALNFSVFYYEILNSPDRACNLAKQAFDEAIAELDSLGEESYKDSTLIMQLLRDNLTLWTSDNADEGGDEIKEASKPEGEGH : its No of PP & Th+ peptides per NTGA reads 1

The value of No of PP & Th+ peptides per NTGA measured for the molecule NTGA 53: Phl p wild type sequence, Table 2 (protein, Phleum Pratense) MDRNPVAKNAGKFMTLAGVLDYAKASNISGILIGIEHAAYLATRGLDVVDAVSNALIKSGYDKETKQQVFIQSEDPPVLSAFKKFPKFNRVFEIEFDIRDVSKPSVVEIKEFANAVKLRRSSAAQVDGFYLTGFNAVVERLRDADIQVHVGVLKNEFMSLAFDYWADPMVEIATDTWSVLADGLVTEFPSTAAAYFRSPCSDIKRNMSYTIKPGEPGALVDMAAYGALPPAPPPAPVLEPADVHRQPLPLCPTEPMFRTFRCRLPPKETGKNAEYTANLAADG turned out to be 1
